Cited source for all entries: ChEMBL document CHEMBL5308504

Test target: Peregrin (Homo sapiens)
Assay setup: Compound concentration 20.0 uM, Protein concentration 2.0 uM, Result type QC Liability
Response field class: string, computed from recorded ΔTm by ranges L: < -2 °C; M: ≥ -2 °C and < -1 °C; H: ≥ -1 °C

As a guide, the following entries are already answered.
>  <Compound>
CC#CC(=O)N1CCN(c2nc(-c3ccc(Oc4ccccc4)cc3)c(C(N)=O)s2)CC1

>  <Label>
M

$$$$
>  <Compound>
O=C1CCCc2[nH]c(-c3ccnc(NCC4CC4)c3)c(Nc3ccccc3)c21

>  <Label>
L

$$$$
>  <Compound>
Cc1ccc(NS(=O)(=O)c2ccc3c(c2)C2C=CCC2C(c2ccc(C(=O)O)cc2)N3)cc1C (centres undefined)

>  <Label>
H

$$$$
>  <Compound>
COc1cc(C(N)=O)nc(-c2cccc(C#C[C@]3(O)CCN(C)C3=O)c2)c1

>  <Label>
M

$$$$
>  <Compound>
CNS(=O)(=O)c1ccc(N(C)C)c(Nc2ncnc3cc(OC)c(OC)cc23)c1

>  <Label>
H

$$$$
>  <Compound>
c1ccc(C(OC2CCN(CCCc3nnn[nH]3)CC2)c2ccccc2)cc1

>  <Label>
L

$$$$
>  <Compound>
Cc1nc(Nc2cnn(C3CCNCC3)c2)nc2c1N(C)C(=O)c1cc3ccccc3cc1N2C

>  <Label>
L

$$$$
>  <Compound>
COc1cc(C(=O)NC2CCN(C)CC2)ccc1Nc1ncc(C(F)(F)F)c(NCc2ccc(C)cc2N(C)S(C)(=O)=O)n1

>  <Label>
M

$$$$

Request: Please indicate the class for CCN1CCN(Cc2ccc(Nc3ncc(F)c(-c4cc(F)c5nc(C)n(C(C)C)c5c4)n3)nc2)CC1 based on its ΔTm.
Response: M

Request: Please indicate the class for CN[C@@H](C)C(=O)N[C@H](C(=O)N1CCC[C@H]1C(=O)N[C@H]1c2ccccc2C[C@H]1OCC#CC#CCO[C@@H]1Cc2ccccc2[C@@H]1NC(=O)[C@@H]1CCCN1C(=O)[C@@H](NC(=O)[C@H](C)NC)C1CCCCC1)C1CCCCC1 based on its ΔTm.
Response: L

Request: Please indicate the class for Nc1ncnc2c1c(I)cn2[C@@H]1O[C@H](CO)[C@@H](O)[C@H]1O based on its ΔTm.
Response: M

Request: Please indicate the class for Cc1ccc(-c2cn3nc(C(=O)NC4(c5ccc(F)cc5)CN(C)C4)c(C(C)C)c3c(=O)[nH]2)cc1C based on its ΔTm.
Response: L

Request: Please indicate the class for Cc1csc(-c2nnc(Nc3ccc(Oc4ncccc4-c4ccnc(N)n4)cc3)c3ccccc23)c1 based on its ΔTm.
Response: L

Request: Please indicate the class for CC(C)(C)c1cc(NC(=O)c2csc(Nc3ccc(Cl)cc3)n2)no1 based on its ΔTm.
Response: H
